Where do these numbers come from? They come from ChEMBL document CHEMBL3779879.

Test system: Klebsiella pneumoniae
Test: Antibacterial activity against Klebsiella pneumoniae ATCC 10031
Format: functional
PARAMETER MEASURED: MIC

Query: What does the data say about its MIC? Entry: `NCC[C@H](O)C(=O)N[C@@H]1C[C@H](N)[C@@H](O[C@H]2O[C@H](CN)[C@@H](O)[C@H](O)[C@H]2N)[C@H](O[C@@H]2O[C@H](CO)[C@@H](O)[C@H]2O)[C@H]1O`
Response: 1 µg/mL

Query: Also `NCC[C@H](O)C(=O)N[C@@H]1C[C@H](N)[C@@H](O[C@H]2OC(CN)=CC[C@H]2N)[C@H](O[C@@H]2O[C@H](CO)[C@@H](O)[C@H]2O)[C@H]1O` , if possible.
Response: 4 µg/mL

Query: Also `NCC[C@H](O)C(=O)N[C@@H]1C[C@H](N)[C@@H](O[C@H]2O[C@H](CO)[C@@H](O)[C@H](O)[C@H]2N)[C@H](O[C@@H]2O[C@H](CO)[C@@H](O[C@H]3O[C@@H](CN)[C@@H](O)[C@H](O)[C@H]3N)[C@H]2O)[C@H]1O` , if possible.
Response: 1 µg/mL

Query: Also `NCC1=CC[C@@H](N)[C@@H](O[C@H]2[C@H](O[C@@H]3O[C@H](CO)[C@@H](O)[C@H]3O)[C@@H](O)[C@H](N)C[C@@H]2N)O1` , if possible.
Response: 16 µg/mL

Query: Also `NC[C@H]1O[C@H](O[C@H]2[C@H](O[C@@H]3O[C@H](CO)[C@@H](O)[C@H]3O)[C@@H](O)[C@H](N)C[C@@H]2N)[C@H](N)[C@@H](O)[C@@H]1O` , if possible.
Response: 2 µg/mL

====

Tested on: Pseudomonas aeruginosa
Assay: Antibacterial activity against Pseudomonas aeruginosa expressing ANT(4')-II
Format: functional
MIC strictly less than 2 µg/mL = 1. Otherwise -1.

COMPOUND: NC[C@H]1O[C@H](O[C@H]2[C@H](O[C@@H]3O[C@H](CO)[C@@H](O)[C@H]3O)[C@@H](O)[C@H](N)C[C@@H]2N)[C@H](N)[C@@H](O)[C@@H]1O [RIBOSTAMYCIN]
SYSTEM: Pseudomonas aeruginosa
LABEL VALUE: -1
--
COMPOUND: CN[C@@H]1[C@@H](O)[C@@H](O[C@@H]2[C@@H](O)[C@H](O[C@H]3OC(CN)=CC[C@H]3N)[C@@H](N)C[C@H]2N)OC[C@]1(C)O [SISOMICIN]
SYSTEM: Pseudomonas aeruginosa
LABEL VALUE: 1
--
COMPOUND: NC[C@@H]1O[C@H](O[C@H]2[C@@H](O)[C@H](O[C@@H]3[C@@H](O)[C@H](N)C[C@H](N)[C@H]3O[C@H]3O[C@H](CO)[C@@H](O)[C@H](O)[C@H]3N)O[C@@H]2CO)[C@H](N)[C@@H](O)[C@@H]1O [PAROMOMYCIN]
SYSTEM: Pseudomonas aeruginosa
LABEL VALUE: -1
--
COMPOUND: NCC1O[C@H](O[C@H]2[C@@H](O)[C@H](O[C@H]3[C@H](O)[C@@H](N)C[C@@H](N)[C@@H]3O[C@H]3O[C@H](CN)[C@@H](O)[C@H](O)[C@H]3N)O[C@@H]2CO)[C@H](N)[C@@H](O)[C@@H]1O (stereo not given in full)
SYSTEM: Pseudomonas aeruginosa
LABEL VALUE: -1
--
COMPOUND: NC[C@H]1O[C@@H](O[C@H]2[C@@H](O)[C@H](O[C@@H]3[C@@H](O)[C@H](N)C[C@H](N)[C@H]3O[C@@H]3OC(CO)=CC[C@@H]3N)O[C@@H]2CO)[C@@H](N)[C@H](O)[C@H]1O (stereo in doubt)
SYSTEM: Pseudomonas aeruginosa
LABEL VALUE: -1

Query: Bench note: check whether `NCC[C@H](O)C(=O)N[C@@H]1C[C@H](N)[C@@H](O[C@H]2O[C@H](CO)[C@@H](O)[C@H](O)[C@H]2N)[C@H](O[C@@H]2O[C@H](CO)[C@@H](O[C@H]3O[C@@H](CN)[C@@H](O)[C@H](O)[C@H]3N)[C@H]2O)[C@H]1O` shows MIC below 2 µg/mL
Response: -1

Query: Also `CNCC1=CC[C@H](N)[C@H](O[C@H]2[C@H](O[C@@H]3O[C@H](CO)[C@@H](O[C@@H]4O[C@H](CN)[C@H](O)[C@@H](O)[C@@H]4N)[C@H]3O)[C@@H](O)[C@H](N)C[C@@H]2N)O1` , if possible.
Response: -1
